Values were extracted from patent US7015306B2.

# Procedure Summary: In vitro urine stability assay (HPLC) of In-111 labeled peptide
# Assay type: in vitro ADME
# Experimental Setup: rat urine, t = 0
Please respond with reported HPLC Evaluation of Urine Stability at 37EC, Urine, t = 0 for every item in the list.
Reply with just the number (in %).

-- ask // query HPLC Evaluation of Urine Stability at 37EC, Urine, t = 0 value for entry CC[C@H](C)[C@H](NC(=O)[C@H](Cc1ccc(O)cc1)NC(=O)[C@@H]1CCCN1C(=O)[C@H](CCCNC(=N)N)NC(=O)[C@H](CCCNC(=N)N)NC(=O)CN(CCN(CCN(CC(=O)O)CC(=O)O)CC(=O)O)CC(=O)O)C(=O)N[C@@H](CC(C)C)C(=O)O [In-111-DTPA-R-R-P-Y-I-L, metal not drawn, reference compound]
-- reply 96.7

-- ask // query HPLC Evaluation of Urine Stability at 37EC, Urine, t = 0 value for entry CC[C@H](C)[C@H](NC(=O)[C@H](Cc1ccc(O)cc1)NC(=O)[C@@H]1CCCN1C(=O)C(CCc1ccnc(N)n1)NC(=O)[C@H](CCCNC(=N)N)NC(=O)[C@@H]1CCCN1C(=O)[C@@H](CCCCN)NC(=O)CN(CCN(CCN(CC(=O)O)CC(=O)O)CC(=O)O)CC(=O)O)C(=O)N[C@@H](CC(C)C)C(=O)O (single isomer, unassigned) [In-111-DTPA-DK-P-R-Aba(Apy)-P-Y-I-L, metal not drawn]
-- reply 96.7

-- ask // query HPLC Evaluation of Urine Stability at 37EC, Urine, t = 0 value for entry CC[C@H](C)[C@H](NC(=O)[C@H](Cc1ccc(O)cc1)NC(=O)[C@@H]1CCCN1C(=O)[C@H](CCCNC(=N)N)NC(=O)C(CCc1ccnc(N)n1)NC(=O)[C@@H]1CCCN1C(=O)[C@@H](CCCCN)NC(=O)CN(CCN(CCN(CC(=O)O)CC(=O)O)CC(=O)O)CC(=O)O)C(=O)N[C@@H](CC(C)C)C(=O)O (single isomer, unassigned) [In-111-DTPA-DK-P-Aba(Apy)-R-P-Y-J-L, metal not drawn]
-- reply 95.6

-- ask // query HPLC Evaluation of Urine Stability at 37EC, Urine, t = 0 value for entry CC[C@H](C)[C@H](NC(=O)[C@H](Cc1ccc(O)cc1)NC(=O)[C@@H]1CCCN1C(=O)[C@H](CCCN=C(N)N)NC(=O)[C@H](Cc1ccc(NC(=N)N)cc1)NC(=O)[C@@H]1CCCN1C(=O)[C@@H](CCCCN)NC(=O)CN(CCN(CCN(CC(=O)O)CC(=O)O)CC(=O)O)CC(=O)O)C(=O)N[C@@H](CC(C)C)C(=O)O [In-111-DTPA-DK-P-F(Gu)-R-P-Y-I-L, metal not drawn]
-- reply 94.1
